Sourced from ChEMBL document CHEMBL1137313

- Test system: ScN2a
- METHOD: Antiprion activity in ScN2a cells assessed as complete reduction of protease-resistant scrapie prion protein
- Format: functional, Mus musculus
Decision: Activity compared against 500 nM; not below it gives 1 (yes), below it gives 0 (no).

Before answering, review these 3 worked examples.
| CHEMICAL SMILES | ASSIGNED CATEGORY |
| --- | --- |
| c1ccc2c(c1)Sc1ccccc1N2CCCN1CCN(CCNc2c3ccccc3nc3ccccc23)CC1 | 1 (yes) |
| c1ccc(N(CCCN2CCN(CCNc3c4ccccc4nc4ccccc34)CC2)c2ccccc2)cc1 | 0 (no) |
| COc1ccc2nc3cc(Cl)ccc3c(NCCCCN3CCN(CCCN4c5ccccc5CCc5ccccc54)CC3)c2c1 | 0 (no) |

Dear colleague, could you confirm whether `COc1ccc2nc3cc(Cl)ccc3c(NCCCCN3CCN(CCCN4c5ccccc5Sc5ccccc54)CC3)c2c1` has Activity at or above 500 nM?
1 (yes)

Record `c1ccc2c(c1)CCc1ccccc1N2CCCN1CCN(CCNc2c3ccccc3nc3ccccc23)CC1` ; criterion: Activity no lower than 500 nM. Met?
0 (no)
